# ASSAY_METHOD_TEXT: Pharmacokinetics in uninfected mice
# Format: in vivo, mouse
# CONDITION: male, CD-1, mouse; 26 mg/kg oral, brain; read-out: Cmax in brain tissue
MEASURED_QUANTITY: Cmax
Just so you know, I need the unit written after the number.

# input So what's the measured Cmax for this one? CC1(C)OB(O)c2cc(NC(=O)c3ccc(F)cc3C(F)(F)F)ccc21 [SCYX-7158]
# output 8100 ng/mL

----------
# ASSAY_METHOD_TEXT: Pharmacokinetics in uninfected mice
# Assay type: in vivo, mouse
# CONDITION: male, CD-1, mouse; 4.3 mg/kg intravenous, plasma; read-out: AUC0–24 h
MEASURED_QUANTITY: AUC(0-t) (µg·h/mL)
Express it in µg·h/mL; write the number only.

# input So what's the measured AUC(0-t) for this one? CC1(C)OB(O)c2cc(NC(=O)c3ccc(F)cc3C(F)(F)F)ccc21 [SCYX-7158]
# output 48
